Molecular target: human DHOD (Homo sapiens)
Sequence (Q02127 whole entry): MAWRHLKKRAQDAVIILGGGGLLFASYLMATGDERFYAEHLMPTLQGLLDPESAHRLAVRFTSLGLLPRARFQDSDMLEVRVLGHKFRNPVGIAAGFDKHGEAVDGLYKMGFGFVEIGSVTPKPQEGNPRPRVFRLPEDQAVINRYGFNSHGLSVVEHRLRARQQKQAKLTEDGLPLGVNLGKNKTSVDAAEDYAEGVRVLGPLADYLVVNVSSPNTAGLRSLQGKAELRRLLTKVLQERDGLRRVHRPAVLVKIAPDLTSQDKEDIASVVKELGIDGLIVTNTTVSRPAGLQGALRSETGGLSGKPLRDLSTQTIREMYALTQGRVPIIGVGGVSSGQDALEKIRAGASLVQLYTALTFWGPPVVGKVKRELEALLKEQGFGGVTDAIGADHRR
Experiment: Measurement of DHOD inhibitory activity (DCIP reduction, end point assay)
Assay type: biochemical
Conditions: read-out: DHOD inhibition rate (%) 200 nM; 200 nM compound
REPORTED_METRIC: inhibition at 0.2 µM (%)

>  <COMPOUND>
C/C(=C\Cc1c(O)c(Cl)c(C)c(C=O)c1O)CC/C=C/COC(=O)C(C)(C)C

>  <RECORDED_VALUE>
57

$$$$
>  <COMPOUND>
COC(C)(C)CCC/C(C)=C/Cc1c(O)c(Cl)c(C)c(C=O)c1O

>  <RECORDED_VALUE>
75

$$$$
>  <COMPOUND>
C/C(=C\Cc1c(O)c(Cl)c(C)c(C=O)c1O)CC/C=C(\C)C(C)O (stereo not drawn)

>  <RECORDED_VALUE>
75

$$$$
>  <COMPOUND>
COC(CC(=O)C(C)(C)C)/C(C)=C/CC/C(C)=C/Cc1c(O)c(Cl)c(C)c(C=O)c1O (stereo not drawn)

>  <RECORDED_VALUE>
76

$$$$
>  <COMPOUND>
C/C(=C\Cc1c(O)c(Cl)c(C)c(C=O)c1O)CC/C=C(\C)CCC1OC1(C)C (stereo not drawn)

>  <RECORDED_VALUE>
79

$$$$
>  <COMPOUND>
C/C(=C\CC/C(C)=C/Cc1c(O)c(Cl)c(C)c(C=O)c1O)CO

>  <RECORDED_VALUE>
82

$$$$
>  <COMPOUND>
C/C(=C\Cc1c(O)c(Cl)c(C)c(C=O)c1O)CCCCOC(=O)C(C)(C)C

>  <RECORDED_VALUE>
58

$$$$
>  <COMPOUND>
C/C(=C\COC(=O)C(C)C)CC/C(C)=C/Cc1c(O)c(Cl)c(C)c(C=O)c1O

>  <RECORDED_VALUE>
101

$$$$
>  <COMPOUND>
CC(=O)OC(C)/C(C)=C/CC/C(C)=C/Cc1c(O)c(Cl)c(C)c(C=O)c1O (stereo not drawn)

>  <RECORDED_VALUE>
97

$$$$
>  <COMPOUND>
CC(C)=CCC/C(C)=C/Cc1c(O)c(Cl)c(C)c(C=O)c1O

>  <RECORDED_VALUE>
69

$$$$
>  <COMPOUND>
CCCCC/C(C)=C/Cc1c(O)c(Cl)c(C)c(C=O)c1O

>  <RECORDED_VALUE>
74

$$$$
>  <COMPOUND>
C/C(=C\Cc1c(O)c(Cl)c(C)c(C=O)c1O)CC/C=C(\C)COC(=O)C(C)(C)C

>  <RECORDED_VALUE>
72

$$$$

----------
Molecular target: human DHOD (Homo sapiens)
Experiment: Measurement of DHOD inhibitory activity (DCIP reduction, end point assay)
Assay type: biochemical
Details: read-out: DHOD inhibition rate (%) 100 nM; 100 nM compound
REPORTED_METRIC: inhibition at 0.1 µM (%)

>  <COMPOUND>
C/C(=C\Cc1c(O)c(Cl)c(C)c(C=O)c1O)CC/C=C/COC(=O)C(C)(C)C [07-11-116-4]

>  <RECORDED_VALUE>
87

$$$$
>  <COMPOUND>
C/C(=C\COC(=O)C(C)(C)C)CC/C(C)=C/Cc1c(O)c(Cl)c(C)c(C=O)c1O [287-12-OPiv]

>  <RECORDED_VALUE>
104

$$$$
>  <COMPOUND>
C/C(=C\Cc1c(O)c(Cl)c(C)c(C=O)c1O)CC/C=C(\C)C(C)O (stereo not drawn) [277-9-OH]

>  <RECORDED_VALUE>
107

$$$$
>  <COMPOUND>
C/C(=C\CC/C(C)=C/Cc1c(O)c(Cl)c(C)c(C=O)c1O)CO [236-9-OH]

>  <RECORDED_VALUE>
103

$$$$
>  <COMPOUND>
CCCCC/C(C)=C/Cc1c(O)c(Cl)c(C)c(C=O)c1O [264-8]

>  <RECORDED_VALUE>
90

$$$$
>  <COMPOUND>
C/C(=C\Cc1c(O)c(Cl)c(C)c(C=O)c1O)CC/C=C(\C)COC(=O)C(C)(C)C [234-12-OPiv]

>  <RECORDED_VALUE>
102

$$$$
>  <COMPOUND>
C/C(=C\Cc1c(O)c(Cl)c(C)c(C=O)c1O)CC/C=C(\C)COC1CCCO1 (stereo not drawn) [236-12-OTHF]

>  <RECORDED_VALUE>
97

$$$$
>  <COMPOUND>
CC(=O)/C(C)=C/CC/C(C)=C/Cc1c(O)c(Cl)c(C)c(C=O)c1O [276-9]

>  <RECORDED_VALUE>
96

$$$$
>  <COMPOUND>
C/C(=C\COC(=O)C(C)C)CC/C(C)=C/Cc1c(O)c(Cl)c(C)c(C=O)c1O [287-12-OCOiPr]

>  <RECORDED_VALUE>
109

$$$$
>  <COMPOUND>
CC(C)=CCC/C(C)=C/CC/C(C)=C/Cc1c(O)c(Cl)c(C)c(C=O)c1O [280-12]

>  <RECORDED_VALUE>
94

$$$$
>  <COMPOUND>
COC(C)(C)CCC/C(C)=C/Cc1c(O)c(Cl)c(C)c(C=O)c1O [231-9-OMe]

>  <RECORDED_VALUE>
98

$$$$
>  <COMPOUND>
COC(=O)/C(C)=C/CC/C(C)=C/Cc1c(O)c(Cl)c(C)c(C=O)c1O [275-10-COOMe]

>  <RECORDED_VALUE>
100

$$$$

----------
Target: UniProt:Q02127
Experiment: Measurement of DHOD inhibitory activity (DCIP reduction, end point assay)
Assay type: biochemical
Details: read-out: DHOD inhibition rate (%) 100 nM; 100 nM compound
REPORTED_METRIC: inhibition at 0.1 µM (%)

>  <COMPOUND>
C/C(=C\Cc1c(O)c(Cl)c(C)c(C=O)c1O)CCCCOC(=O)C(C)(C)C [264-11-OPiv]

>  <UNITS_SYMBOL>
%

>  <inhibition at 0.1 µM>
94

$$$$
>  <COMPOUND>
Cc1c(Cl)c(O)c(/C=C/CCCCCCOC(=O)C(C)C)c(O)c1C=O [200-12-OCOiPr]

>  <UNITS_SYMBOL>
%

>  <inhibition at 0.1 µM>
85

$$$$
>  <COMPOUND>
C/C(=C\Cc1c(O)c(Cl)c(C)c(C=O)c1O)CC/C=C(\C)[C@@H]1CC(=O)C(C)(C)O1 (racemic) [Ascofuranone]

>  <UNITS_SYMBOL>
%

>  <inhibition at 0.1 µM>
95

$$$$
>  <COMPOUND>
C/C(C=O)=C\CC/C(C)=C/Cc1c(O)c(Cl)c(C)c(C=O)c1O [274-9]

>  <UNITS_SYMBOL>
%

>  <inhibition at 0.1 µM>
98

$$$$
>  <COMPOUND>
CC(C)=CCC/C(C)=C/Cc1c(O)c(Cl)c(C)c(C=O)c1O [CC-B]

>  <UNITS_SYMBOL>
%

>  <inhibition at 0.1 µM>
100

$$$$
>  <COMPOUND>
CC(=O)OC(C)/C(C)=C/CC/C(C)=C/Cc1c(O)c(Cl)c(C)c(C=O)c1O (centres unmarked) [277-11-OAc]

>  <UNITS_SYMBOL>
%

>  <inhibition at 0.1 µM>
103

$$$$
>  <COMPOUND>
COC(CC(=O)C(C)(C)C)/C(C)=C/CC/C(C)=C/Cc1c(O)c(Cl)c(C)c(C=O)c1O (centres unmarked) [271-12]

>  <UNITS_SYMBOL>
%

>  <inhibition at 0.1 µM>
95

$$$$
>  <COMPOUND>
C/C(=C\Cc1c(O)c(Cl)c(C)c(C=O)c1O)CC/C=C(\C)CCC1OC1(C)C (centres unmarked) [281-12]

>  <UNITS_SYMBOL>
%

>  <inhibition at 0.1 µM>
100

$$$$

----------
Target: human DHOD (Homo sapiens)
Assay: Measurement of DHOD inhibitory activity (DCIP reduction, end point assay)
Assay type: biochemical
Details: read-out: DHOD inhibition rate (%) 200 nM; 200 nM compound
REPORTED_METRIC: inhibition at 0.2 µM (%)

Worked examples follow.
>  <MOLECULE>
CC(C)=CCC/C(C)=C/CC/C(C)=C/Cc1c(O)c(Cl)c(C)c(C=O)c1O [280-12]

>  <inhibition at 0.2 µM (%)>
104

$$$$
>  <MOLECULE>
C/C(=C\Cc1c(O)c(Cl)c(C)c(C=O)c1O)CC/C=C(\C)COC1CCCO1 (centres unmarked) [236-12-OTHF]

>  <inhibition at 0.2 µM (%)>
86

$$$$
>  <MOLECULE>
C/C(=C\Cc1c(O)c(Cl)c(C)c(C=O)c1O)CC/C=C(\C)[C@@H]1CC(=O)C(C)(C)O1 (racemic) [Ascofuranone]

>  <inhibition at 0.2 µM (%)>
73

$$$$
>  <MOLECULE>
C/C(C=O)=C\CC/C(C)=C/Cc1c(O)c(Cl)c(C)c(C=O)c1O [274-9]

>  <inhibition at 0.2 µM (%)>
90

$$$$
>  <MOLECULE>
C/C(=C\COC(=O)C(C)(C)C)CC/C(C)=C/Cc1c(O)c(Cl)c(C)c(C=O)c1O [287-12-OPiv]

>  <inhibition at 0.2 µM (%)>
82

$$$$

[A] COC(=O)/C(C)=C/CC/C(C)=C/Cc1c(O)c(Cl)c(C)c(C=O)c1O [275-10-COOMe]
[B] Cc1c(Cl)c(O)c(/C=C/CCCCCCOC(=O)C(C)C)c(O)c1C=O [200-12-OCOiPr]
Hello, I am sorting some records. Could you say if A or B has the smaller inhibition at 0.2 µM value? Use the label to indicate which entry you chose. B
